Test: NCI Yeast Anticancer Drug Screen. Data for the mlh1 rad18 strain (AID 175)
Conditions: S. cerevisiae mlh1 rad18 strain growth inhibition; at 50.0 µM; active compounds read high
This is part of a sample that, as a whole, favours compounds with a hit. Of some 79,000 tested, about 15% had one in any assay. Calls of active or inactive are those of the source. Rule as the data show it: active = growth inhibition above about 70%; inactive = the rest.
Observation type: growth inhibition

Req: Look up growth inhibition: Cc1ccc(SC(F)(F)C(F)C(F)(F)F)cc1 (stereo unspecified)
Resp: -1.1% (inactive)

Req: Lookup `CC(=O)Oc1ccc[nH]c1=O`
Resp: 2.4% (inactive)

Req: Lookup C=C1C(=O)OC2CCC(O)C12 (stereo unspecified)
Resp: 11.7% (inactive)

Req: Lookup `CC(=O)n1c(=O)c2cc3c(=O)n(-c4cccc(C#N)c4)c(=O)c3cc2c1=O`
Resp: -9.65% (inactive)

Req: Lookup CC(CCC(=O)CS(C)=O)C1CCC2C3CCC4CCCCC4(C)C3CCC12C (stereo unspecified)
Resp: 0.95% (inactive)

Req: Lookup CCCC1OC(c2ccc(OC)cc2)OCC1CC (stereo unspecified)
Resp: -0.75% (inactive)

###

Assay: NCI Yeast Anticancer Drug Screen. Data for the mec2-1 strain (AID 157)
Settings: S. cerevisiae mec2-1 strain, at 50.0 µM, active compounds read high
This is part of a sample that, as a whole, favours compounds with a hit. Of some 79,000 tested, about 15% had one in any assay.
Is growth inhibition at least -10%? Then T. If not, F.

These recorded examples may help you get a feel for the data.
CC(C)c1nc(N)nc(N)n1; F
COc1ccc(CC(C)=C(C#N)C#N)cc1OC; T
CC1(CO)CSC(Nc2ccc(Cl)c(Cl)c2)=N1 (stereo not given); F
CC(=O)c1ccccc1NC(=O)C(=O)C(C(=O)c1ccc2ccccc2c1)C1OC(=O)c2ccccc21 (stereo not given); T
CC(NNC(=S)N1CCC(c2ccccc2)CC1)c1ccc2ccccc2n1 (stereo not given); T

Req: Determine whether this molecule has growth inhibition no lower than -10%: COc1ccc(/C=C2\CCC(CCN(C)C)(C3=CCCC3)C2=O)cc1 (stereo not given)
Resp: T

Req: Lookup CNC(=O)NCCCC(NC(C)=O)C(=O)NCc1ccccc1 (stereo not given)
Resp: F

Req: Lookup CSCCC(NC(=O)c1cnc2ccccc2n1)C(=O)O (stereo not given)
Resp: T

Req: Lookup CN(c1cn(C2CC[C@@H](CO)O2)c(=O)[nH]c1=O)C1CCCCC1 (stereo not given in full)
Resp: F

Req: Lookup Cc1ccc(NC(=O)OCC(COc2ccc(Cl)cc2Cl)OC(=O)Nc2ccc(C)cc2)cc1 (stereo not given)
Resp: F

###

Assay: NCI Yeast Anticancer Drug Screen. Data for the cln2 rad14 strain (AID 165);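 also: 0% = growth equal to vehicle treated cultures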
Conditions: S. cerevisiae cln2 rad14 strain, at 50.0 µM, active compounds read high
Compounds without any hit were thinned out: in the full panel of roughly 79,000, 15% have a hit.
Observation type: growth inhibition (%)
Use % as the unit, but write only the number.

Below are worked cases with known answers.
CC(C)=CCC/C(C)=N\Nc1ccc([N+](=O)[O-])cc1[N+](=O)[O-]; -15.6
CC(C)C1c2ccccc2C(=O)C1C(N)=O (stereo not drawn); -22.6
COc1ccc(CN2CCCN(Cc3ccc(OC)cc3OC)C2c2cccc(OC)c2O)c(OC)c1; 16
O=NNc1nc2ncccc2cc1-c1ccccc1Cl; 9.75

Req: Look up growth inhibition: CCOC(=O)C(F)C(C)=O (stereo not drawn)
Resp: 97.4

Req: Lookup `c1ccc2c(c1)ncc1cccn12`
Resp: 3.45

Req: Lookup `c1ccc(Cn2nnc(-c3ccccc3)n2)cc1`
Resp: -10.3

Req: Lookup O=C(Nc1ccccc1O)C(O)C(O)C(O)C(O)CO (stereo not drawn)
Resp: 23.2

Req: Lookup CC(=O)OC(C)C(O)C(O)C(/C=C/C1CC=CC(=O)O1)OC(C)=O (stereo not drawn)
Resp: 10.6
